molecular target: FGFR3 (Homo sapiens, UniProt P22607); construct: purchased Reaction Biology Corporation; assay: Biochemical kinase assay (Reaction Biology, 33P ATP); conditions: 10 μM ATP
Sequence (P22607 23-806): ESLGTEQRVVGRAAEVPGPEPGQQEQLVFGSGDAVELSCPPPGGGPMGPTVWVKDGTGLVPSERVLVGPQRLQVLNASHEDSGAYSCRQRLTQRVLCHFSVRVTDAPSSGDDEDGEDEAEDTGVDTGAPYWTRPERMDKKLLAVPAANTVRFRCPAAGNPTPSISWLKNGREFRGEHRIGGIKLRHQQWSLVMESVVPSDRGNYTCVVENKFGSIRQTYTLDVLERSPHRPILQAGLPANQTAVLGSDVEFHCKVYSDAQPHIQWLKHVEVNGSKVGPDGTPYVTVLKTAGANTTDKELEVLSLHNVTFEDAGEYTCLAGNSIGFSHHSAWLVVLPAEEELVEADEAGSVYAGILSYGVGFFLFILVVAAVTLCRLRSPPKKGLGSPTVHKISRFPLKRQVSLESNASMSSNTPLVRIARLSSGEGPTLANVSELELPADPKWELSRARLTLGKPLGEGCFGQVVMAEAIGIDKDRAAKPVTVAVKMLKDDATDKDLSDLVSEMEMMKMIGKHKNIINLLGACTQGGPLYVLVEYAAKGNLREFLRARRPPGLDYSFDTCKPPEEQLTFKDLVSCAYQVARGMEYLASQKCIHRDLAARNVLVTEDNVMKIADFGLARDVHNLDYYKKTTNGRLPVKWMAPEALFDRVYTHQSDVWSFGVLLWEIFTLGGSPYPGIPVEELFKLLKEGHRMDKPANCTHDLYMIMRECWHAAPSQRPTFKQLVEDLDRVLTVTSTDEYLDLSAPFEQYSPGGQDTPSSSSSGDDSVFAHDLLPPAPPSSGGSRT

| compound | IC50 |
| --- | --- |
| C[C@@H]1COc2cn3ncc4c3nc2N1Cc1cc(F)cc(F)c1O[C@@H](C)CNC4=O [Compound 7] | 30.5 nM |

* * *

Biological target: BaF3 EML4-ALK (Homo sapiens)
Construct: The EML4-ALK gene (variant 1) was synthesized at GenScript and cloned into pCDH-CMV-MCS-EF1-Puro plasmid (System Biosciences, Inc); fused on or other part: EML4 N-terminal part (variant 1: exons 1-13, with the coiled-coil that oligomerises the fusion) fused to the intracellular part of ALK, which contains the kinase domain; Q9HC35 (Echinoderm microtubule-associated protein-like 4)
Test: Cell proliferation assay (CellTiter-Glo)
Format: cell-based
Conditions: anti-cell proliferation, 72 hours
Method: Cloning and Ba/F3 or NIH3T3 Stable Cell Line Creation The EML4-ALK gene (variant 1) was synthesized at GenScript and cloned into pCDH-CMV-MCS-EF1-Puro plasmid (System Biosciences, Inc). […] Two thousand cells per well were seeded in 384 well white plate for 24 hrs, and then treated with compounds for 72 hours (37° C., 5% CO2). Cell proliferation was measured using CellTiter-Glo luciferase-based ATP detection assay (Promega) following the manufactures's protocol. […]
reportedMetric: IC50 (nM)

| compound | reportedMetric | number |
| --- | --- | --- |
| C[C@@H]1COc2cn3ncc4c3nc2N1Cc1cc(F)cnc1OC[C@H](CO)NC4=O [Compound 82] | IC50 | 657 |
| C[C@@H]1COc2cn3ncc4c3nc2N1Cc1cc(F)cnc1OC[C@H](C)NC4=O [Compound 51] | IC50 | 233 |
| C[C@@H]1COc2cn3ncc4c3nc2N1Cc1cc(F)ccc1O[C@@H](C)CNC4=O [Compound 5] | IC50 | 37.7 |

* * *

Each record here notes measured pIC50.
Molecular target: BaF3 EML4-ALK (Homo sapiens, UniProt Q9UM73)
Construct: The EML4-ALK gene (variant 1) was synthesized at GenScript and cloned into pCDH-CMV-MCS-EF1-Puro plasmid (System Biosciences, Inc); fused on or other part: EML4 N-terminal part (variant 1: exons 1-13, with the coiled-coil that oligomerises the fusion) fused to the intracellular part of ALK, which contains the kinase domain; Q9HC35 (Echinoderm microtubule-associated protein-like 4)
Sequence (Q9UM73 whole entry, stated change not applied, the tested form may be a part): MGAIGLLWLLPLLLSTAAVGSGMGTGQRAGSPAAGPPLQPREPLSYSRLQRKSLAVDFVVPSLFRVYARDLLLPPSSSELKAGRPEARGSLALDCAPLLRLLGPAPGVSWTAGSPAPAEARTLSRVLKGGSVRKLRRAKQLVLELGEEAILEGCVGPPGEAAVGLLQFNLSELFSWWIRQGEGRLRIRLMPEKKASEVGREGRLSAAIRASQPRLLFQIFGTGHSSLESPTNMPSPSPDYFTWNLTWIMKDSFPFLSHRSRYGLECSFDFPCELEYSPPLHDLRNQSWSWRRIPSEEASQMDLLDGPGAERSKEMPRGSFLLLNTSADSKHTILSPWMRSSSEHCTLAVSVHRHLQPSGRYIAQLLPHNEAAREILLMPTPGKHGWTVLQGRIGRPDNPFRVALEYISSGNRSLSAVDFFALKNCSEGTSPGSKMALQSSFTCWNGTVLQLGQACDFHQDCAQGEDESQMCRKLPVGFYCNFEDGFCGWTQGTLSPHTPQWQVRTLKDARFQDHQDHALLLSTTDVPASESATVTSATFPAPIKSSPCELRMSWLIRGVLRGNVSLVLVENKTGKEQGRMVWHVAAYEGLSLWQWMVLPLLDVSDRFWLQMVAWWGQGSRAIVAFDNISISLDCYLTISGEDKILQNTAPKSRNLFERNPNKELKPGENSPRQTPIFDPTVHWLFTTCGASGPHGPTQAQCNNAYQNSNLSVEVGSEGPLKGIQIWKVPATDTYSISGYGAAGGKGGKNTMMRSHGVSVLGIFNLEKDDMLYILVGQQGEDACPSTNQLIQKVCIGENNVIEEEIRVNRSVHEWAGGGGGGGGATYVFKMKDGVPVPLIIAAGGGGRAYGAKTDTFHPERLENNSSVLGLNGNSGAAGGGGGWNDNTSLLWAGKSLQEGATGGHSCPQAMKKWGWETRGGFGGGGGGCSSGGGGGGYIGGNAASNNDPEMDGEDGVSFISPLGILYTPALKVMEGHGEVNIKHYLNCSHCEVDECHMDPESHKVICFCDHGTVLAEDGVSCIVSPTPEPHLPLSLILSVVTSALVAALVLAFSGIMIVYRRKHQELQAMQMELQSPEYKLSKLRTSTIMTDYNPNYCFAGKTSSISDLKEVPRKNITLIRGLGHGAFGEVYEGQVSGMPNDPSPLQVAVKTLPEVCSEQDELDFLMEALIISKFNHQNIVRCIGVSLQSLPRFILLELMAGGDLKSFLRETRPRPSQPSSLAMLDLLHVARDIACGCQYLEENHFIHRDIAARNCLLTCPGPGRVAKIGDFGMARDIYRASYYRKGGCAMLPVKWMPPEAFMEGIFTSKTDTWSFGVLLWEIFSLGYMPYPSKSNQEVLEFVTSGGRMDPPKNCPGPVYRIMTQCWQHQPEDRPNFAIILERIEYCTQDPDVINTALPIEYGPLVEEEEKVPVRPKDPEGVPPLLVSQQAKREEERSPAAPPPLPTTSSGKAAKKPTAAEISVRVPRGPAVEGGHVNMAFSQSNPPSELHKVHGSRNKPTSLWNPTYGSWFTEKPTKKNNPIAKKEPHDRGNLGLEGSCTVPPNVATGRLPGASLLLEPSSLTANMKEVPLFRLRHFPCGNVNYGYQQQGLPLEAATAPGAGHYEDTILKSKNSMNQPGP
Assay: Cell proliferation assay (CellTiter-Glo)
Type: cell-based
Settings: anti-cell proliferation, 72 hours
Protocol: Cloning and Ba/F3 or NIH3T3 Stable Cell Line Creation The EML4-ALK gene (variant 1) was synthesized at GenScript and cloned into pCDH-CMV-MCS-EF1-Puro plasmid (System Biosciences, Inc). […] Two thousand cells per well were seeded in 384 well white plate for 24 hrs, and then treated with compounds for 72 hours (37° C., 5% CO2). Cell proliferation was measured using CellTiter-Glo luciferase-based ATP detection assay (Promega) following the manufactures's protocol. […]
pIC50: −log10 of the molar value.

| molecule | limitQualifier | pIC50 |
| --- | --- | --- |
| CC[C@@H]1COc2cn3ncc4c3nc2N1Cc1cc(F)cnc1OCC(C)(C)NC4=O [Compound 65] | = | 6.79 |
| C[C@@H]1COc2cn3ncc4c3nc2N1Cc1cc(F)cnc1OC[C@@H](C(F)(F)F)NC4=O [Compound 85] | = | 7.90 |
| C[C@@H]1COc2cn3ncc4c3nc2N1Cc1cc(F)cnc1O[C@@H](C)CNC4=O [Compound 8] | = | 6.99 |
| C[C@@H]1COc2ncc(F)cc2CN2c3nc4c(cnn4cc3OCC2(C)C)C(=O)N1 [Compound 68] | = | 6.47 |
| C[C@H]1CNC(=O)c2cnn3cc4c(nc23)N(Cc2cc(F)cnc2O1)C[C@@H](F)CO4 [Compound 93] | < | 5.00 |
| C[C@@H]1COc2cn3ncc4c3nc2N1Cc1cc(F)cnc1O[C@H]1CCC[C@@H]1NC4=O [Compound 53] | = | 6.95 |
| C[C@H]1CNC(=O)c2cnn3cc4c(nc23)N(Cc2cc(F)cnc2OC1)[C@H](C)CO4 [Compound 35] | = | 7.32 |
| C[C@@H]1COc2cn3ncc4c3nc2N1Cc1cc(F)cnc1OCC1(CCCC1)NC4=O [Compound 52] | = | 6.56 |
| CC1CCNC(=O)c2cnn3cc4c(nc23)N(Cc2cc(F)cnc2O1)[C@H](C)CO4 (stereo partly shown) [Compound 69] | = | 7.06 |
| C[C@@H]1COc2cn3ncc4c3nc2N1Cc1cc(F)cnc1O[C@H]1C[C@H](C1)NC4=O [Compound 95] | = | 7.78 |
| C[C@@H]1COc2cn3ncc4c3nc2N(Cc2cc(F)cnc2O[C@@H](C)CNC4=O)C1 [Compound 30] | = | 5.13 |
| C[C@@H]1COc2cn3ncc4c3nc2N1Cc1cc(F)ccc1OCCNC4=O [Compound 3] | = | 7.03 |
| C[C@H]1COc2cn3ncc4c3nc2N1Cc1cc(F)ccc1OCCNC4=O [Compound 2] | < | 5.00 |
| C[C@@H]1COc2cn3ncc4c3nc2N1Cc1cc(F)cnc1OCC1(CC1)NC4=O [Compound 34] | = | 7.63 |
| COC[C@@H]1COc2cn3ncc4c3nc2N1Cc1cc(F)cnc1OC[C@@H](C)NC4=O [Compound 44] | = | 6.26 |
| CC1CNC(=O)c2cnn3cc4c(nc23)N(Cc2cc(F)cnc2OC1)[C@H](C)CO4 (stereo partly shown) [Compound 71] | = | 7.70 |

* * *

target: BaF3 EML4-ALK (Homo sapiens, UniProt Q9UM73); construct: The EML4-ALK gene (variant 1) was synthesized at GenScript and cloned into pCDH-CMV-MCS-EF1-Puro plasmid (System Biosciences, Inc); fused on or other part: EML4 N-terminal part (variant 1: exons 1-13, with the coiled-coil that oligomerises the fusion) fused to the intracellular part of ALK, which contains the kinase domain; Q9HC35 (Echinoderm microtubule-associated protein-like 4); assay: Cell proliferation assay (CellTiter-Glo); format: cell-based; settings: anti-cell proliferation, 72 hours
pIC50: −log10 of the molar value.
Each record here notes measured pIC50.
reportedMetric: pIC50

| molecule | limitQualifier | number |
| --- | --- | --- |
| C[C@H]1CNC(=O)c2cnn3cc4c(nc23)N(CCCO4)Cc2cc(F)ccc2O1 [Compound 17] | = | 5.58 |
| C[C@H]1CNC(=O)c2cnn3cc4c(nc23)N(Cc2cc(F)cnc2O1)[C@H](C1CC1)CO4 [Compound 26] | = | 6.16 |
| C[C@H]1CNC(=O)c2cnn3cc4c(nc23)N(Cc2cc(F)cnc2O1)C1(CCCC1)CO4 [Compound 57] | = | 5.66 |
| C[C@@H]1COc2cn3ncc4c3nc2N1Cc1cc(F)cnc1OCC(C)(C)CNC4=O [Compound 55] | = | 7.83 |
| C[C@H]1CNC(=O)c2cnn3cc4c(nc23)N(Cc2cc(F)cnc2O1)C1(CCC1)CO4 [Compound 56] | = | 6.04 |
| C[C@@H]1COc2cn3ncc4c3nc2N1Cc1cc(F)cnc1OCC1(CCC1)CNC4=O [Compound 47] | = | 7.17 |
| C[C@@H]1COc2ncc(F)cc2CN2c3nc4c(cnn4cc3OCC23CC3)C(=O)N1 [Compound 28] | = | 6.74 |
| CC[C@@H]1COc2cn3ncc4c3nc2N1Cc1cc(F)cnc1OC[C@@H](C)NC4=O [Compound 15] | = | 7.85 |
| C[C@@H]1COc2ncc(F)cc2CN2c3nc4c(cnn4cc3OC[C@H]2C(N)=O)C(=O)N1 [Compound 60] | < | 5.00 |
| C[C@@H]1COc2ncc(F)cc2CN2c3nc4c(cnn4cc3OC[C@H]2Cc2ccccc2)C(=O)N1 [Compound 39] | = | 5.79 |
| CC[C@@H]1COc2cn3ncc4c3nc2N1Cc1cc(F)ccc1OC[C@@H](C)NC4=O [Compound 13] | = | 7.55 |
| C[C@@H]1COc2cn3ncc4c3nc2N1Cc1cc(F)cnc1OCC1(CC(F)(F)C1)NC4=O [Compound 50] | = | 6.23 |
| C[C@@H]1COc2ncc(F)cc2CN2c3nc4c(cnn4cc3OC[C@H]2c2ccccc2)C(=O)N1 [Compound 46] | = | 5.98 |
| C[C@@H]1COc2ncc(F)cc2CN2c3nc4c(cnn4cc3OCC[C@H]2C)C(=O)N1 [Compound 22] | = | 6.14 |
| C[C@@H]1COc2ncc(F)cc2[C@H](C)N2c3nc4c(cnn4cc3OC[C@H]2C)C(=O)N1 [Compound 84] | = | 6.44 |
| C[C@@H]1COc2cn3ncc4c3nc2N1Cc1cc(F)cnc1O[C@@H](C)CCNC4=O [Compound 36] | = | 7.22 |

* * *

tested on: KM12 (TPM3-TRKA); test: Cell proliferation assay (CellTiter-Glo); assay type: cell-based; details: Homo sapiens, anti-cell proliferation, 72 hours
pIC50: −log10 of the molar value.
reportedMetric: pIC50

| molecule | reportedMetric | result |
| --- | --- | --- |
| C[C@@H]1COc2ncc(F)cc2CN2c3nc4c(cnn4cc3OC[C@H]2C#N)C(=O)N1 | pIC50 | 6.33 |
| C[C@@H]1COc2ncc(F)cc2CN2c3nc4c(cnn4cc3OC[C@H]2C)C(=O)N1 | pIC50 | > 9.70 |
| C[C@@H]1COc2ncc(F)cc2CN2C[C@@H](O)COc3cn4ncc(c4nc32)C(=O)N1 | pIC50 | 8.51 |
| C[C@@H]1COc2cn3ncc4c3nc2N1Cc1cc(F)cnc1OCC1(CC(F)(F)C1)NC4=O | pIC50 | > 9.70 |
| C[C@@H]1COc2cn3ncc4c3nc2N1Cc1cc(F)cnc1OC[C@H](O)CNC4=O | pIC50 | > 9.70 |
| CC1CNC(=O)c2cnn3cc4c(nc23)N(Cc2cc(F)cnc2OC1)[C@H](C)CO4 (some centres unmarked) | pIC50 | > 9.70 |
| C[C@H]1CNC(=O)c2cnn3cc4c(nc23)N(Cc2cc(F)cnc2O1)[C@H](C1CC1)CO4 | pIC50 | > 9.70 |
| COC[C@@H]1COc2cn3ncc4c3nc2N1Cc1cc(F)cnc1OC[C@@H](C)NC4=O | pIC50 | > 9.70 |
